MEASURED_TARGET: Carbonic anhydrase 1 (Homo sapiens) (UniProt P00915)
Sequence (P00915 2-261 limits assumed): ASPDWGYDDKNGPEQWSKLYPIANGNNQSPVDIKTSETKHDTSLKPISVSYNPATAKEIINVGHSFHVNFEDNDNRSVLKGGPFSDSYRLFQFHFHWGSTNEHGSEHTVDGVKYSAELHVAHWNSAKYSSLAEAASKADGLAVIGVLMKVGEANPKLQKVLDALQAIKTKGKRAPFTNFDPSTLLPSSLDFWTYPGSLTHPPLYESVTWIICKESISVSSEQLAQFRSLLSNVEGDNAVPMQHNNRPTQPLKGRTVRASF
ASSAY_COMMENT: In vitro binding affinity against human carbonic anhydrase I (hCA-I human cloned isozyme).
PARAMETER: Ka (µM)

Some solved cases for reference:
INSERT INTO results (compound, measured_target, recorded_number) VALUES
  ('CC1(C)C2CCC1(CS(=O)(=O)NCCc1c[nH]cn1)C(=O)C2 (stereo unspecified)', 'Carbonic anhydrase 1 (Homo sapiens) (UniProt P00915)', 0.17),
  ('O=S(=O)(NCCc1c[nH]cn1)c1ccc(Br)cc1', 'Carbonic anhydrase 1 (Homo sapiens) (UniProt P00915)', 0.09),
  ('O=C(O)c1c(Br)c(Br)c(Br)c(Br)c1S(=O)(=O)NCCc1c[nH]cn1', 'Carbonic anhydrase 1 (Homo sapiens) (UniProt P00915)', 0.05),
  ('COc1ccc(S(=O)(=O)NCCc2c[nH]cn2)cc1', 'Carbonic anhydrase 1 (Homo sapiens) (UniProt P00915)', 0.2),
  ('O=S(=O)(NCCc1c[nH]cn1)c1ccccc1', 'Carbonic anhydrase 1 (Homo sapiens) (UniProt P00915)', 0.21),
  ('CC(=O)Nc1ccc(S(=O)(=O)NCCc2c[nH]cn2)cc1', 'Carbonic anhydrase 1 (Homo sapiens) (UniProt P00915)', 0.21),
  ('O=S(=O)(NCCc1c[nH]cn1)c1c(F)c(F)c(F)c(F)c1F', 'Carbonic anhydrase 1 (Homo sapiens) (UniProt P00915)', 0.006),
  ('O=S(=O)(NCCc1c[nH]cn1)c1ccc(I)cc1', 'Carbonic anhydrase 1 (Homo sapiens) (UniProt P00915)', 0.08),
  ('O=S(=O)(NCCc1c[nH]cn1)C(Cl)(Cl)Cl', 'Carbonic anhydrase 1 (Homo sapiens) (UniProt P00915)', 0.018),
  ('O=C(O)c1ccc(S(=O)(=O)NCCc2c[nH]cn2)cc1', 'Carbonic anhydrase 1 (Homo sapiens) (UniProt P00915)', 0.06);

a. O=S(=O)(NCCc1c[nH]cn1)c1ccc(F)cc1
b. Cc1cc(C)c(S(=O)(=O)NCCc2c[nH]cn2)c(C)c1
Could you kindly indicate whether a or b has the higher Ka value? Refer to your chosen entry by its label in the reply. b
(b: 0.25 µM, a: 0.11 µM)

P. CN(C)c1cccc2c(S(=O)(=O)NCCc3c[nH]cn3)cccc12
Q. O=[N+]([O-])c1cccc(S(=O)(=O)NCCc2c[nH]cn2)c1
Parameter check: reported Ka is higher for which label, P or Q ? Pick one; state its label. P

a. O=S(=O)(NCCc1c[nH]cn1)C(F)(F)C(F)(F)C(F)(F)C(F)(F)C(F)(F)C(F)(F)C(F)(F)C(F)(F)F
b. O=S(=O)(NCCc1c[nH]cn1)c1cccc2ccccc12
c. O=[N+]([O-])c1ccc(S(=O)(=O)NCCc2c[nH]cn2)cc1Cl
In this exercise, place the 3 compounds in ascending sequence of their recorded Ka. Please express your ranking as an ordered list of the labels. a, c, b
(a: 0.007 µM, c: 0.12 µM, b: 0.26 µM)

P. Cc1ccc(S(=O)(=O)NCCc2c[nH]cn2)cc1
Q. O=[N+]([O-])c1ccccc1S(=O)(=O)NCCc1c[nH]cn1
R. NCCc1c[nH]cn1
rank_up(items): orders items by reported Ka in ascending numerical order. Response format: the labels, sorted as the prompt asks. Q, P, R
(Q: 0.13 µM, P: 0.24 µM, R: 2 µM)
